# measurement_target: Prostaglandin E synthase 2 (Homo sapiens, UniProt Q9H7Z7)
# Sequence (Q9H7Z7 whole entry): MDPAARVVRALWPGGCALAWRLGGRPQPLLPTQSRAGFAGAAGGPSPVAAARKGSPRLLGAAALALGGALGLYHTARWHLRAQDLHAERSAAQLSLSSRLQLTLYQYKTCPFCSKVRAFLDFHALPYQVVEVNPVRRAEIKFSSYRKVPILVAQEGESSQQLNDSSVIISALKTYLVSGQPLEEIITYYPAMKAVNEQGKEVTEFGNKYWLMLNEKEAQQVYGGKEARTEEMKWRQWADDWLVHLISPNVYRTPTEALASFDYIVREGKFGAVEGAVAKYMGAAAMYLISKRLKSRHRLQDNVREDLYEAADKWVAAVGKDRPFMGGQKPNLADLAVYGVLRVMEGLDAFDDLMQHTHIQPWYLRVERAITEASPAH
# experimental_protocol: Inhibition of heme-free recombinant mPGES-2 (unknown origin) pre-incubated with compound for 15 mins followed by PGH2 addition measured after 5 min by ELISA
parameter: IC50

Fill in the blank: the reported IC50 of "C[C@@H]1CC[C@H]2[C@@H](C)C(=O)O[C@@H]3O[C@@]4(C)CC[C@@H]1[C@]32OO4" is ____.
9.9 µM

* * *

# measurement_target: UniProt:Q9H7Z7
# experimental_protocol: Inhibition of heme-free recombinant mPGES-2 (unknown origin) pre-incubated with compound for 15 mins followed by PGH2 addition measured after 1 min by ELISA
parameter: pIC50
Answers are plain numbers, as −log10 of the molar value.

Quick check: pIC50 on UniProt:Q9H7Z7, item C[C@@H]1CC[C@H]2[C@@H](C)C(=O)O[C@@H]3O[C@@]4(C)CC[C@@H]1[C@]32OO4 [ARTEMISININ] ?
4.97
